- Test system: MOLT-4 leukemia
- assay_text: NCI tumour cell line growth inhibition, 48 h
Quick reference for TGI among some compounds

- compound: "O=C(O)c1nc(-c2ccccc2)[nH]c1C(=O)O"
  TGI: "9.64 µM"
- compound: "CC(C)c1cccc2sc(NC(=O)C(=O)C(C#N)c3cccc4ccccc34)nc12 (stereo not drawn)"
  TGI: "> 100 µM"
- compound: "Cc1nc2c(sc(=S)n2-c2ccccc2)c(=O)[nH]1"
  TGI: "> 100 µM"
- compound: "CCN(CC)Cc1ccc(Nc2nccc(-c3cnn4ncccc34)n2)cc1"
  TGI: "0.144 µM"

Q) Recorded TGI of N#Cc1ccccc1-c1nc2c3c(c(N)ccc3n1)C(=O)c1ccccc1-2 , please.
A) > 100 µM

Q) Requested field: TGI. Item: COc1ccc2c(c1)C(=O)c1c-2c(N(C)C)nc2ccccc12
A) > 100 µM

Q) TGI lookup needed for Nc1ncnc2c1nnn2C1CCC(CP(=O)(O)O)C1 (stereo not drawn) , thanks.
A) > 100 µM

Q) Request the reported TGI associated with CC(=O)Nc1ccc(OC2=CCN(C)CC2)cc1
A) > 100 µM

Q) TGI for COc1ccc(C(SC2C(O)C(CO)OC2n2ccc(N)nc2=O)(c2ccccc2)c2ccc(OC)cc2)cc1 (stereo not drawn) ?
A) > 100 µM

Q) Recorded TGI of COC(=O)C(CSSC[C@H](N/C(C)=C/C(C)=O)C(=O)OC)N/C(C)=C/C(C)=O (stereo partly drawn) , please.
A) > 100 µM

Q) Bench note: what TGI did Cc1ccc(S(=O)(=O)Nc2cccc3[nH]c(C(F)(F)F)nc23)cc1 show?
A) 29 µM

----------
- Tested on: KM12 colon
- assay_text: NCI tumour cell line growth inhibition, 48 h
In this section we review reported TGI values for a set of molecules.

Q) Can you share its TGI? I mean this molecule: CC(C)C(OC(=O)c1ccc(NCc2cc(O)ccc2O)cc1)C(C)C
A) 11.1 µM

Q) TGI lookup needed for CCN(C(=S)N[C@H](C(=O)N[C@@H](C)C(=O)OC)C(C)C)c1ccccc1 , thanks.
A) > 100 µM

Q) Could you share which TGI value was measured for O=c1oc2ccccc2cc1-c1cn2cc(Cl)ccc2n1 ?
A) 12.1 µM

Q) May I ask what TGI has been recorded for O=c1c2ccccc2nc(-c2ccccc2)n1NC1OC(CO)C(O)C(O)C1O (centres undefined) ?
A) > 100 µM

Q) Record request: TGI value, item COc1cc2cc[n+]3c(C)c4cc(OC)c(OC)cc4c([O-])c3c2cc1OC
A) > 100 µM

Q) Given the molecule Nc1[nH]nc2nc(-c3cccs3)cc(C(F)(F)F)c12 , what is its reported TGI?
A) > 25 µM

Q) Any idea what its TGI is? The molecule is CC(C)(O)CC(=O)NCCn1ccc2ncnc(Nc3ccc(Oc4cccc(C(F)(F)F)c4)c(Cl)c3)c21
A) > 10 µM

Q) Look up TGI: CC1(C)CC(=O)c2c(nc3ccc4ccccc4c3c2-c2ccc(NC(=O)CCCCCCCCC(=O)Nc3ccc(-c4c5c(nc6ccc7ccccc7c46)CC(C)(C)CC5=O)cc3)cc2)C1
A) > 100 µM

Q) // TGI lookup, key: COc1ccc2c(c1)c(CC(=O)O)c(C)n2C(=O)c1ccc(Cl)cc1
A) > 100 µM

----------
- System: UO-31 renal
- assay_text: NCI tumour cell line growth inhibition, 48 h
A collection of compounds and their measured TGI

- compound: "O=C(NN1C(=O)CSC12CCCC2)c1[nH]c2ccc(Br)cc2c1-c1ccccc1"
  target: "UO-31 renal"
  TGI: "> 100 µM"
- compound: "CCN(C(=S)N[C@H](C(=O)N[C@@H](C)C(=O)OC)C(C)C)c1ccccc1"
  target: "UO-31 renal"
  TGI: "> 100 µM"
- compound: "COc1cccc(-n2ncc3c(N/N=C/c4ccncc4)ncnc32)c1"
  target: "UO-31 renal"
  TGI: "> 25 µM"
- compound: "CCOP(=O)(OCC)C1CC(n2cc(C)c(=O)[nH]c2=O)OC1CO (stereo not given)"
  target: "UO-31 renal"
  TGI: "> 100 µM"
- compound: "COC(=O)c1c(O)ccc2c1c1c(n2Cc2cccc(C)c2)C(=O)c2ccccc2C1=O"
  target: "UO-31 renal"
  TGI: "19.8 µM"
- compound: "CCN(CC)c1ccc2cc(C(=O)Nc3cccc4ccccc34)c(=N)oc2c1"
  target: "UO-31 renal"
  TGI: "> 100 µM"
- compound: "COc1ccc(OC)c2c1C(=O)C1CC1(Br)C2=O (stereo not given)"
  target: "UO-31 renal"
  TGI: "> 100 µM"
- compound: "COc1ccc(C(=O)Cc2ccc(Br)cc2)cc1OC"
  target: "UO-31 renal"
  TGI: "> 100 µM"

Q) Returns the measured TGI for the input compound. Input: CN1c2ccccc2N(C)C23N(C)c4ccccc4N(C)C12N(C)c1ccccc1N3C (stereo not given)
A) > 100 µM

Q) Give the measured TGI of O=C(Nc1cccc(NC(=O)Nc2cc(C(F)(F)F)ccc2Cl)c1)Nc1cc(C(F)(F)F)ccc1Cl .
A) 14.7 µM

----------
- Tested on: BT-549 breast
- assay_text: NCI tumour cell line growth inhibition, 48 h
attribute_measured: log10 of TGI (log10 of the value in µM)
Scale type: logarithmic (base 10). Underlying TGI unit: µM.

- compound: "C[C@]12CC[C@H]3[C@@H](CC[C@]4(O)C[C@@H](O)CC[C@]34/C=N/O)[C@@]1(O)CC[C@@H]2C1=COC(=O)C1"
  measured_number: -0.61

Q) Give BT-549 breast log10 of TGI for Cc1ccc(CNc2c3ccccc3nc3cc(NC(=O)CCN4CCCC4)ccc23)cc1
A) 0.46

Q) Find log10 of TGI (BT-549 breast) for the entry CN1CC[C@@H](c2c(O)cc(O)c3c(=O)cc(-c4ccccc4Cl)oc23)[C@@H]1CO
A) 0.40

Q) Request - read-out log10 of TGI | tested on BT-549 breast | compound O=C1/C(=N\S(=O)(=O)c2ccccc2)C([n+]2ccc(Cc3ccccc3)cc2)=C([O-])c2ccccc21
A) 0.43

----------
- System: SNB-75 CNS
- assay_text: NCI tumour cell line growth inhibition, 48 h
attribute_measured: TGI

Examples from the recorded data:
- compound: "COc1cccc(-n2ncc3c(N/N=C/c4ccncc4)ncnc32)c1"
  attribute_measured: "TGI"
  result: "> 25 µM"
- compound: "Nc1nc(Nc2ccc(C3CCC(N4CCOCC4)CC3)cc2)nn1-c1ccccn1 (stereo unspecified)"
  attribute_measured: "TGI"
  result: "11.9 µM"
- compound: "CC1=C(CO)C(=O)O[C@@H]([C@@H](C)[C@H]2CC[C@H]3[C@@H]4C[C@@H](O)[C@@]5(O)CC=CC(=O)[C@]5(C)[C@H]4CC[C@]23C)C1"
  attribute_measured: "TGI"
  result: "> 100 µM"

Q) I'd like to know its TGI. The compound in question is Cc1[nH]c2ccccc2c1C1Cc2ccccc2N1C(=O)/C=C/C(=O)O (stereo unspecified)
A) > 100 µM

Q) // TGI lookup, key: CC#CC(=O)SCCNC(=O)CC
A) > 10 µM

Q) Using the record for OC(CCNCc1ccccc1)c1ccc2ccccc2c1 (stereo unspecified) , report its TGI.
A) 75.6 µM

Q) Request the reported TGI associated with O=C(Nc1nc2ccccc2s1)c1cc([N+](=O)[O-])ccc1Cl
A) > 100 µM

Q) So what does the record say about TGI for CC1=C2C(=CC(C)(C)C2O)C(=O)C(C)(O)C12CC2 (stereo unspecified) ?
A) 0.0377 µM

Q) What value of measured TGI is listed for CCc1ccc(NC(=O)COC(=O)c2cc([N+](=O)[O-])ccc2Sc2nnnn2C)cc1 ?
A) 35 µM

Q) GET /values?readout=TGI&item= CN1c2ccccc2N(C)C23N(C)c4ccccc4N(C)C12N(C)c1ccccc1N3C (stereo unspecified)
A) > 100 µM

Q) Sample C[CH2][Sn]([CH2]C)([O]C(=O)C(OC(C)=O)c1ccccc1)[O]C(=O)C(OC(C)=O)c1ccccc1 (stereo unspecified) — what was its TGI?
A) 99.5 µM

Q) Value lookup for TGI; key = C=C(CO[Si](C)(C)C(C)(C)C)C(C)=O
A) 62.3 µM

Q) Which TGI is listed for COc1ccccc1NC(=O)CC(=O)N1N=C(C)C(N=Nc2ccc(C(=O)O)cc2)C1=O (stereo unspecified) ?
A) 6.06 µM

----------
Entries annotated with measured log10 of TGI
- Tested on: HOP-92 NSCLC
- assay_text: NCI tumour cell line growth inhibition, 48 h
The figures below represent log10 of TGI, where TGI is stated in µM.

Observe how each entry below is paired with its result.
- compound: "Cc1ccc(CNc2c3ccccc3nc3cc(NC(=O)CCN4CCCC4)ccc23)cc1"
  attribute_measured: "log10 of TGI"
  measured_number: 0.33
- compound: "COC(=O)c1c(OC(C)=O)ccc2c1c1c(n2C)C(=O)c2ccccc2C1=O"
  attribute_measured: "log10 of TGI"
  measured_number: 0.98
- compound: "COc1cc(C2C(Cl)C(=O)N2NC(=O)c2ccc(N)cc2)ccc1O (stereo unspecified)"
  attribute_measured: "log10 of TGI"
  measured_number: 1.72

Q) Would you kindly share the measured log10 of TGI for Cc1c2c(nn1C)CSCc1cc(n(C)n1)CSc1cc(c3ccccc3c1)OCCCc1c(C(=O)O)n(C)c3c-2c(Cl)ccc13 ?
A) 1.01

Q) Please give the measured log10 of TGI for this compound: COC(=O)c1cc2ccc(OC(C)=O)c(OC(C)=O)c2cn1
A) 1.51

Q) Returns the measured log10 of TGI for the input compound. Input: COc1ccc(/C=C2\S/C(=N/Nc3nc(-c4ccccc4)cs3)NC2=O)cc1OC
A) 1.55

All figures here come from PubChem BioAssay (NCI).
